Molecular target: T1, human EphB6 (Homo sapiens, UniProt O15197)
T1 construct: a protein of the extracellular region of each human Eph receptor fused with the SEAP protein and the His tag; made in house; host or cells: Expi293F cells
T1 sequence (O15197 32-594 limits assumed): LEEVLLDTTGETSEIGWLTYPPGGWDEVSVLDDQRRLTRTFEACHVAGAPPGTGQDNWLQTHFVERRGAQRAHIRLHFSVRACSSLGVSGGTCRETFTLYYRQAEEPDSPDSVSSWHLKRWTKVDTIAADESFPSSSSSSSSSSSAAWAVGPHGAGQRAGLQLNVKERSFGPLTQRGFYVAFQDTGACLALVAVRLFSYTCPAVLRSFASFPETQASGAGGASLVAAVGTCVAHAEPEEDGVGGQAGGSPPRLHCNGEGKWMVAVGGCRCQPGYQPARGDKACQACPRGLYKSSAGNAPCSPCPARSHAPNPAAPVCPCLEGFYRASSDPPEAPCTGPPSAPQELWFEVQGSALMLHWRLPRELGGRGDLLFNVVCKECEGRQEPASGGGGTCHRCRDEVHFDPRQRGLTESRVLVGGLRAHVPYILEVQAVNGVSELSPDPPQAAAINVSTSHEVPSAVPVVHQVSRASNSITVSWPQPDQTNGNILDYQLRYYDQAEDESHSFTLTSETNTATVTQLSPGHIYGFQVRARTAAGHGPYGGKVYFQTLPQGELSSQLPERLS
Assay: Selectivity ELISA of humanized antibodies for human Eph receptor
Type: binding
Details: coated protein 1 nM
parameter.measured: hEphB6-SEAP-: absorbance at 450 nm, percentage with respect to hEphA4-SEAP-His as 100%
Could you kindly put the unit after your number?

// lookup hEphB6-SEAP-: absorbance at 450 nm, percentage with respect to hEphA4-SEAP-His as 100% for 155 (antibody, V domains shown, synthetic humanized antibody heavy chain variable region sequence; synthetic humanized antibody light chain variable region sequence) VH: QIQLVQSGSELKKPGASVKVSCKASGYTFTDYSMHWVRQAPGQGLKWMGWINTETGEPTYADDFKGRFVFSLDTSVSTAYLQISSLKAEDTAVYYCARIPLYYYGSRYWYFDVWGQGTTVTVSS VL: DIQMTQSPSSLSASVGDRVTITCRASENIYRNLAWYQQKPGKAPKLLLYAATNLADGVPSRFSGSGSGTDYTLTISSLQSEDFATYYCQHFWGTPWTFGQGTKVEIK 5.6%

Same for 145 (antibody, V domains shown, synthetic humanized antibody heavy chain variable region sequence; synthetic humanized antibody light chain variable region sequence) VH: QVQLVQSGSELKKPGASVKVSCKASGYTFTDYSMHWVRQAPGQGLKWMGWINTETGEPTYADDFKGRFVFSLDTSVSTAYLQISSLKAEDTAVYYCARIPLYYYGSRYWYFDVWGQGTTVTVSS VL: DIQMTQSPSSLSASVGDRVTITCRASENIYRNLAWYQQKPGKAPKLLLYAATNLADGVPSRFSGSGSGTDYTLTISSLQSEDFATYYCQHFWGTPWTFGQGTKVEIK 6.6%

Now the molecule 87 (antibody, V domains shown, constant regions without entry; synthetic humanized antibody light chain variable region sequence; synthetic humanized antibody heavy chain variable region sequence) VL: DIQMTQSPSSLSASVGDRVTITCRASENIYRNLAWYQQKPGKAPQLLLYAATNLADGVPSRFSGSGSGTDYTLTISSLQPEDFATYYCQHFWGTPWTFGQGTKVEIK VH: QVQLVQSGSELKKPGASVKVSCKASGYTFTDYSMHWVRQAPGQGLEWMGWINTETGEPTYAQGFTGRFVFSLDTSVSTAYLQISSLKAEDTAVYYCARIPLYYYGSRYWYFDVWGQGTTVTVSS 5.3%

Cool, now 138 (antibody, V domains shown, synthetic humanized antibody heavy chain variable region sequence; synthetic humanized antibody light chain variable region sequence) VH: QIQLVQSGSELKKPGASVKVSCKASGYTFTDYSMHWVRQAPGQGLKWMGWINTETGEPTYAQGFTGRFVFSLDTSVSTAYLQISSLKAEDTAVYYCARIPLYYYGSRYWYFDVWGQGTTVTVSS VL: DIQMTQSPSSLSASVGDRVTITCRASENIYRNLAWYQQKPGKAPKLLVYAATNLADGVPSRFSGSGSGTDYTLTISSLQPEDFATYYCQHFWGTPWTFGQGTKVEIK 5.0%

# repeat for 92 (antibody, V domains shown, constant regions without entry; synthetic humanized antibody light chain variable region sequence; synthetic humanized antibody heavy chain variable region sequence) VL: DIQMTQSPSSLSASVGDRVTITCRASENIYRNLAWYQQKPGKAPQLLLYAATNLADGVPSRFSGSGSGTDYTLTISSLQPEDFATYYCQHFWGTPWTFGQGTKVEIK VH: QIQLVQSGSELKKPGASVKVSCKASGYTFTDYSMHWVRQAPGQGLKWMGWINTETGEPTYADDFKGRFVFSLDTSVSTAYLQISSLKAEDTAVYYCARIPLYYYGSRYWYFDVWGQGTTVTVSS 6.5%

Same question, 86 (antibody, V domains shown, constant regions without entry; synthetic humanized antibody light chain variable region sequence; synthetic humanized antibody heavy chain variable region sequence) VL: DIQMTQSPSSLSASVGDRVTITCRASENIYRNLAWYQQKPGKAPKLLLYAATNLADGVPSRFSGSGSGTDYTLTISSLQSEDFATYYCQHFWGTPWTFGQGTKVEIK VH: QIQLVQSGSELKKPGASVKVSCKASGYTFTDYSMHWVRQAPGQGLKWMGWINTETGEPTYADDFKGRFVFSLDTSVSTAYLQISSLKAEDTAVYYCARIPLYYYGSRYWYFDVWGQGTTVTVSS this time 5.7%

Try 77 (antibody, V domains shown, synthetic humanized antibody heavy chain variable region sequence; synthetic humanized antibody light chain variable region sequence) VH: QVQLVQSGSELKKPGASVKVSCKASGYTFTDYSMHWVRQAPGQGLEWMGWINTETGEPTYADDFKGRFVFSLDTSVSTAYLQISSLKAEDTAVYYCARIPLYYYGSRYWYFDVWGQGTTVTVSS VL: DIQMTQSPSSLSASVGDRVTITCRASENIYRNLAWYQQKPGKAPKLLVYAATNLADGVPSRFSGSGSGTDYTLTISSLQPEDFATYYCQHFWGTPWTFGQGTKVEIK next. 4.5%
